- Measurement target: Interstitial collagenase (Homo sapiens, UniProt P03956)
- Sequence (P03956 whole entry): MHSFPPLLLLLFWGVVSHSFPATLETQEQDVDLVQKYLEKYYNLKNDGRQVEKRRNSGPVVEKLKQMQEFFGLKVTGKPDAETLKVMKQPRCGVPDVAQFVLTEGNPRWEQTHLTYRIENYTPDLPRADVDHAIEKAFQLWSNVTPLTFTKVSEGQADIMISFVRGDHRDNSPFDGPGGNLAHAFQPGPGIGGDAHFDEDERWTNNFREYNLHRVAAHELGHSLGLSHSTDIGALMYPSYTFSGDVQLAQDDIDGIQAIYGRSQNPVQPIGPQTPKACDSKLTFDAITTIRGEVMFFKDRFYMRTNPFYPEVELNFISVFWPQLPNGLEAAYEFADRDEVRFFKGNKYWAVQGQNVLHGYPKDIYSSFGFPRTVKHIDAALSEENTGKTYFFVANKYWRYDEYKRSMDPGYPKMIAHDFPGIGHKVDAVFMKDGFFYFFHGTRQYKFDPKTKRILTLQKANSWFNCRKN
pIC50: −log10 of the molar value.
Readout type: pIC50

>>> obs_value("COc1ccc(S(=O)(=O)N2CCN(S(=O)(=O)c3sc(N)nc3C)CC2C(=O)NO)cc1 (centres undefined)")
7.51
>>> obs_value("CCCCCCN1CCN(S(=O)(=O)c2ccc(OC)cc2)C(C(=O)NO)C1 (centres undefined)")
6.00
>>> obs_value("COCCN(CCOC)C(=O)N1CCN(S(=O)(=O)c2ccc(Br)cc2)C(C(=O)NO)C1 (centres undefined)")
7.31
>>> obs_value("COc1ccc(S(=O)(=O)N2CCN(C(=O)c3ccc(-c4ccccc4)cc3)CC2C(=O)NO)cc1 (centres undefined)")
7.37
>>> obs_value("COc1ccc(S(=O)(=O)N2CCN(C(=O)OCc3ccccc3)CC2C(=O)NO)cc1 (centres undefined)")
7.62
>>> obs_value("COc1ccc(S(=O)(=O)N2CCN(C(=O)c3cccs3)CC2C(=O)NO)cc1 (centres undefined)")
7.17
>>> obs_value("CCOCCCOC(=O)N1CCN(S(=O)(=O)c2ccc(OC)cc2)C(C(=O)NO)C1 (centres undefined)")
7.66
>>> obs_value("COc1ccc(S(=O)(=O)N2CCN(S(C)(=O)=O)CC2C(=O)NO)cc1 (centres undefined)")
8.10
>>> obs_value("COc1ccc(S(=O)(=O)N2CCN(C(=O)c3ccccc3)CC2C(=O)NO)cc1 (centres undefined)")
7.09
